These measurements were taken from PubChem BioAssay AID2060612.

Tested on: 565232-114-T-J1-PDC complex spheroid viability
MEASUREMENT PROTOCOL: Anticancer human tumor 565232-114-T-J1-PDC patient-derived bladder carcinoma cell line growth inhibition [CLK]
CONDITIONS USED: second compound 0.0316 µM; first compound 3.16 µM; stronger effect = lower value
Reported viability, T/C values for the following compounds.
RECORDED ENDPOINT: viability, T/C (%)

COMPOUND	RECORDED ENDPOINT	UNITS TEXT	VAL
C=C(F)C(=O)N1CCN(c2nc(OCC3CCCN3C)nc3c2CCN(c2cccc4cccc(Cl)c24)C3)CC1CC#N (stereo not drawn) + CNC(=O)c1ccc(Nc2nc(OC3CCCC3)c3c(-c4ccc5nc(C)oc5c4)c[nH]c3n2)c(OC)c1	viability, T/C	%	127
CC(=O)O[C@H]1C(=O)[C@@]2(C)[C@H]([C@H](OC(=O)c3ccccc3)[C@]3(O)C[C@H](OC(=O)[C@H](O)[C@@H](NC(=O)c4ccccc4)c4ccccc4)C(C)=C1C3(C)C)[C@]1(OC(C)=O)CO[C@@H]1C[C@@H]2O + CNC(=O)c1ccc(Nc2nc(OC3CCCC3)c3c(-c4ccc5nc(C)oc5c4)c[nH]c3n2)c(OC)c1	viability, T/C	%	13.3
CC(=O)O[C@H]1C(=O)[C@@]2(C)[C@H]([C@H](OC(=O)c3ccccc3)[C@]3(O)C[C@H](OC(=O)[C@H](O)[C@@H](NC(=O)c4ccccc4)c4ccccc4)C(C)=C1C3(C)C)[C@]1(OC(C)=O)CO[C@@H]1C[C@@H]2O + CN1CCN(c2cc(C(=O)Nc3cc4cc(-c5cnn(C)c5)ccc4cn3)ccn2)CC1	viability, T/C	%	21.1
Nc1ccccc1NC(=O)c1ccc(CNC(=O)OCc2cccnc2)cc1 + CN1CCN(c2cc(C(=O)Nc3cc4cc(-c5cnn(C)c5)ccc4cn3)ccn2)CC1	viability, T/C	%	89.8
O=C(c1cc(Cc2n[nH]c(=O)c3ccccc23)ccc1F)N1CCN(C(=O)C2CC2)CC1 + CN1CCN(c2cc(C(=O)Nc3cc4cc(-c5cnn(C)c5)ccc4cn3)ccn2)CC1	viability, T/C	%	128
COc1ccc([C@@H](O)c2cc(-c3ncnc4cc(N5CCOCC5)ccc34)c(F)cc2Cl)nn1 + CNC(=O)c1ccc(Nc2nc(OC3CCCC3)c3c(-c4ccc5nc(C)oc5c4)c[nH]c3n2)c(OC)c1	viability, T/C	%	115
CC(CO)NC(=O)c1cc(-c2ccc(Cl)cc2)nn(-c2cnn(C)c2)c1=O (stereo not drawn) + CNC(=O)c1ccc(Nc2nc(OC3CCCC3)c3c(-c4ccc5nc(C)oc5c4)c[nH]c3n2)c(OC)c1	viability, T/C	%	97.6
Nc1ccccc1NC(=O)c1ccc(CNC(=O)OCc2cccnc2)cc1 + CNC(=O)c1ccc(Nc2nc(OC3CCCC3)c3c(-c4ccc5nc(C)oc5c4)c[nH]c3n2)c(OC)c1	viability, T/C	%	48.3

* * *

Tested on: 565232-114-T-J1-PDC complex spheroid viability
MEASUREMENT PROTOCOL: Anticancer human tumor 565232-114-T-J1-PDC cell line growth inhibition [CLK];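 also: spheroids exposed to compounds for 7 days before readout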
CONDITIONS USED: curve of first compound; second compound 3.16 µM
RECORDED ENDPOINT: IC50

MOLECULE	RECORDED ENDPOINT	VAL
O=C(c1cc(Cc2n[nH]c(=O)c3ccccc23)ccc1F)N1CCN(C(=O)C2CC2)CC1 + CNC(=O)c1ccc(Nc2nc(OC3CCCC3)c3c(-c4ccc5nc(C)oc5c4)c[nH]c3n2)c(OC)c1	IC50	< 31.6 nM
CCc1c2c(nc3ccc(O)cc13)-c1cc3c(c(=O)n1C2)COC(=O)[C@]3(O)CC + CN1CCN(c2cc(C(=O)Nc3cc4cc(-c5cnn(C)c5)ccc4cn3)ccn2)CC1	IC50	< 3.16 nM
CC(CO)NC(=O)c1cc(-c2ccc(Cl)cc2)nn(-c2cnn(C)c2)c1=O (stereo not given) + CN1CCN(c2cc(C(=O)Nc3cc4cc(-c5cnn(C)c5)ccc4cn3)ccn2)CC1	IC50	< 31.6 nM
CC1COCCN1c1cc(C2(S(C)(=N)=O)CC2)nc(-c2ccnc3[nH]ccc23)n1 (stereo not given) + CNC(=O)c1ccc(Nc2nc(OC3CCCC3)c3c(-c4ccc5nc(C)oc5c4)c[nH]c3n2)c(OC)c1	IC50	< 31.6 nM
CC(=O)O[C@H]1C(=O)[C@@]2(C)[C@H]([C@H](OC(=O)c3ccccc3)[C@]3(O)C[C@H](OC(=O)[C@H](O)[C@@H](NC(=O)c4ccccc4)c4ccccc4)C(C)=C1C3(C)C)[C@]1(OC(C)=O)CO[C@@H]1C[C@@H]2O + CNC(=O)c1ccc(Nc2nc(OC3CCCC3)c3c(-c4ccc5nc(C)oc5c4)c[nH]c3n2)c(OC)c1	IC50	< 31.6 nM

* * *

Tested on: 565232-114-T-J1-PDC complex spheroid viability
MEASUREMENT PROTOCOL: Anticancer human tumor 565232-114-T-J1-PDC cell line growth inhibition [CLK];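 also: spheroids exposed to compounds for 7 days before readout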
CONDITIONS USED: curve of first compound; second compound 0.1 µM
pIC50: −log10 of the molar value.

COMPOUND	TARGET UNDER TEST	pIC50
Cn1ncnc1[C@H]1c2n[nH]c(=O)c3cc(F)cc(c23)N[C@@H]1c1ccc(F)cc1 + CN1CCN(c2cc(C(=O)Nc3cc4cc(-c5cnn(C)c5)ccc4cn3)ccn2)CC1	565232-114-T-J1-PDC complex spheroid viability	< 7.00
NC(=O)C(=Cn1cnc(-c2cc(C(F)(F)F)cc(C(F)(F)F)c2)n1)c1cncnc1 + CNC(=O)c1ccc(Nc2nc(OC3CCCC3)c3c(-c4ccc5nc(C)oc5c4)c[nH]c3n2)c(OC)c1	565232-114-T-J1-PDC complex spheroid viability	> 8.02
O=C(c1cc(Cc2n[nH]c(=O)c3ccccc23)ccc1F)N1CCN(C(=O)C2CC2)CC1 + CN1CCN(c2cc(C(=O)Nc3cc4cc(-c5cnn(C)c5)ccc4cn3)ccn2)CC1	565232-114-T-J1-PDC complex spheroid viability	< 5.00
C=CC(=O)Nc1cc(Nc2nccc(-c3cn(C)c4ccccc34)n2)c(OC)cc1N(C)CCN(C)C + CN1CCN(c2cc(C(=O)Nc3cc4cc(-c5cnn(C)c5)ccc4cn3)ccn2)CC1	565232-114-T-J1-PDC complex spheroid viability	< 6.52
C=CC(=O)N1CCN(c2nc(=O)n(-c3c(C)ccnc3C(C)C)c3nc(-c4c(O)cccc4F)c(F)cc23)C(C)C1 (stereo unspecified) + CNC(=O)c1ccc(Nc2nc(OC3CCCC3)c3c(-c4ccc5nc(C)oc5c4)c[nH]c3n2)c(OC)c1	565232-114-T-J1-PDC complex spheroid viability	< 5.00
CC(=O)O[C@H]1C(=O)[C@@]2(C)[C@H]([C@H](OC(=O)c3ccccc3)[C@]3(O)C[C@H](OC(=O)[C@H](O)[C@@H](NC(=O)c4ccccc4)c4ccccc4)C(C)=C1C3(C)C)[C@]1(OC(C)=O)CO[C@@H]1C[C@@H]2O + CNC(=O)c1ccc(Nc2nc(OC3CCCC3)c3c(-c4ccc5nc(C)oc5c4)c[nH]c3n2)c(OC)c1	565232-114-T-J1-PDC complex spheroid viability	> 7.50
O=C(c1cc(Cc2n[nH]c(=O)c3ccccc23)ccc1F)N1CCN(C(=O)C2CC2)CC1 + CNC(=O)c1ccc(Nc2nc(OC3CCCC3)c3c(-c4ccc5nc(C)oc5c4)c[nH]c3n2)c(OC)c1	565232-114-T-J1-PDC complex spheroid viability	5.82
C=C(F)C(=O)N1CCN(c2nc(OCC3CCCN3C)nc3c2CCN(c2cccc4cccc(Cl)c24)C3)CC1CC#N (stereo unspecified) + CNC(=O)c1ccc(Nc2nc(OC3CCCC3)c3c(-c4ccc5nc(C)oc5c4)c[nH]c3n2)c(OC)c1	565232-114-T-J1-PDC complex spheroid viability	5.41
CC1COCCN1c1cc(C2(S(C)(=N)=O)CC2)nc(-c2ccnc3[nH]ccc23)n1 (stereo unspecified) + CN1CCN(c2cc(C(=O)Nc3cc4cc(-c5cnn(C)c5)ccc4cn3)ccn2)CC1	565232-114-T-J1-PDC complex spheroid viability	5.19
CCN1CCN(Cc2ccc(Nc3ncc(F)c(-c4cc(F)c5nc(C)n(C(C)C)c5c4)n3)nc2)CC1 + CN1CCN(c2cc(C(=O)Nc3cc4cc(-c5cnn(C)c5)ccc4cn3)ccn2)CC1	565232-114-T-J1-PDC complex spheroid viability	< 6.00
Nc1ccccc1NC(=O)c1ccc(CNC(=O)OCc2cccnc2)cc1 + CNC(=O)c1ccc(Nc2nc(OC3CCCC3)c3c(-c4ccc5nc(C)oc5c4)c[nH]c3n2)c(OC)c1	565232-114-T-J1-PDC complex spheroid viability	7.35

* * *

Tested on: 565232-114-T-J1-PDC complex spheroid viability
MEASUREMENT PROTOCOL: Anticancer human tumor 565232-114-T-J1-PDC cell line growth inhibition [CLK]; active = viability on the fitted dose curve at most 10% of control; inactive = the rest;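 also: spheroids exposed to compounds for 7 days before readout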
CONDITIONS USED: second compound 10 µM; first compound 10 µM
Labels: active, inactive

MOLECULE	LABEL VALUE
Nc1ccccc1NC(=O)c1ccc(CNC(=O)OCc2cccnc2)cc1 + CNC(=O)c1ccc(Nc2nc(OC3CCCC3)c3c(-c4ccc5nc(C)oc5c4)c[nH]c3n2)c(OC)c1	active
COc1ccc([C@@H](O)c2cc(-c3ncnc4cc(N5CCOCC5)ccc34)c(F)cc2Cl)nn1 + CNC(=O)c1ccc(Nc2nc(OC3CCCC3)c3c(-c4ccc5nc(C)oc5c4)c[nH]c3n2)c(OC)c1	inactive
C=C(F)C(=O)N1CCN(c2nc(OCC3CCCN3C)nc3c2CCN(c2cccc4cccc(Cl)c24)C3)CC1CC#N (centres undefined) + CNC(=O)c1ccc(Nc2nc(OC3CCCC3)c3c(-c4ccc5nc(C)oc5c4)c[nH]c3n2)c(OC)c1	active
CC1COCCN1c1cc(C2(S(C)(=N)=O)CC2)nc(-c2ccnc3[nH]ccc23)n1 (centres undefined) + CNC(=O)c1ccc(Nc2nc(OC3CCCC3)c3c(-c4ccc5nc(C)oc5c4)c[nH]c3n2)c(OC)c1	active
